Molecular target: UniProt:P90627
Sequence (P90627 1-340): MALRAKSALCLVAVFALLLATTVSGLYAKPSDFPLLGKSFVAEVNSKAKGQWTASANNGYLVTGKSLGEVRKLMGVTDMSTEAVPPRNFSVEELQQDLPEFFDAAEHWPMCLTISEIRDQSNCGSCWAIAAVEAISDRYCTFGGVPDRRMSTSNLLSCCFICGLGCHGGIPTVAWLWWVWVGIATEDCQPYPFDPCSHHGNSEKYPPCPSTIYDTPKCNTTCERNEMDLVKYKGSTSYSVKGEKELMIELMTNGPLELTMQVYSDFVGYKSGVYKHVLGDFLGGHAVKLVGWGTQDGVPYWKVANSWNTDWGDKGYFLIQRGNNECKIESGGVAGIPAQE
Assay: Cysteine protease inhibition, progress curve method, leishmania B
Type: biochemical, Leishmania spp
Details: read-out: Leishmania B Ki nM; 10 uM Cbz-Phe-Arg-AMC, 100 mM Na acetate pH 5.5, 5 mM cysteine
READOUT TYPE: Ki (nM)

{"MOLECULE": "CC(C)C[C@H](NC(=O)c1cc2sccc2s1)C(=O)N[C@H]1C[C@H](C)CN(S(=O)(=O)c2ccccn2)CC1=O", "READOUT TYPE": "Ki", "OBSERVED VALUE": 4.7}
{"MOLECULE": "CC(C)C[C@H](NC(=O)c1cc2ccccc2s1)C(=O)N[C@H]1CCCN(S(=O)(=O)c2ccc(Cl)cc2)CC1=O", "READOUT TYPE": "Ki", "OBSERVED VALUE": 8}
{"MOLECULE": "Cc1c(C(=O)N[C@@H](CC(C)C)C(=O)NC2CCCN(Cc3ccc4ccccc4n3)CC2=O)oc2ccccc12 (stereo partly shown)", "READOUT TYPE": "Ki", "OBSERVED VALUE": 0.77}
{"MOLECULE": "CC(C)C[C@H](NC(=O)c1cc2ccccc2o1)C(=O)NC1CCCN(Cc2ccc3ccccc3n2)CC1=O (stereo partly shown)", "READOUT TYPE": "Ki", "OBSERVED VALUE": 1.7}
{"MOLECULE": "O=C(N[C@@H](Cc1ccc2ccccc2c1)C(=O)NC1CCCN(S(=O)(=O)c2ccccn2)CC1=O)c1cccc2ccccc12 (stereo partly shown) [Example 175]", "READOUT TYPE": "Ki", "OBSERVED VALUE": 1.7}
{"MOLECULE": "CC(C)C[C@H](NC(=O)c1cc2ccccc2s1)C(=O)NC1CCCN(Cc2ccc3ccccc3n2)CC1=O (stereo partly shown)", "READOUT TYPE": "Ki", "OBSERVED VALUE": 1}
{"MOLECULE": "CC(C)C[C@H](NC(=O)c1cc2ccccc2o1)C(=O)N[C@H]1CCCN(S(=O)(=O)c2ccc(Cl)cc2)CC1=O", "READOUT TYPE": "Ki", "OBSERVED VALUE": 11}

###

molecular target: Schisto B 1 (Schistosoma mansoni, UniProt P25792); experiment: Cysteine protease inhibition, progress curve method, schistosoma B 1; format: biochemical; conditions: 10 uM Cbz-Phe-Arg-AMC, 100 mM Na acetate pH 5.5, 5 mM cysteine; read-out: Schisto B 1 Ki
Sequence (P25792 89-340): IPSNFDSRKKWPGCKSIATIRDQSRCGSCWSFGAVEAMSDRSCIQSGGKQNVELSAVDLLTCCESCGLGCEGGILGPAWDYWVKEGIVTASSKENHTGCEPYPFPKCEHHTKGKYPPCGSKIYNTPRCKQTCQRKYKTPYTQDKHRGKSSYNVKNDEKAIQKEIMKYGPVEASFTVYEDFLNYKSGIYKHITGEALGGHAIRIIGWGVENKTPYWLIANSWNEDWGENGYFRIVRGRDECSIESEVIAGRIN
READOUT TYPE: Ki (nM)

{"MOLECULE": "COc1cccc(S(=O)(=O)N2CCC[C@H](NC(=O)[C@H](CC(C)C)NC(=O)c3cc4ccccc4s3)C(=O)C2)c1", "TARGET DESC": "Schisto B 1 (Schistosoma mansoni, UniProt P25792)", "READOUT TYPE": "Ki", "OBSERVED VALUE": 68}
{"MOLECULE": "O=C(NC(Cc1ccccc1)C(=O)N[C@@H]1CCCN(S(=O)(=O)c2ccccn2)CC1=O)c1cccc2ccccc12 (single isomer, unassigned)", "TARGET DESC": "Schisto B 1 (Schistosoma mansoni, UniProt P25792)", "READOUT TYPE": "Ki", "OBSERVED VALUE": 38}
{"MOLECULE": "CC(C)CC(NC(=O)c1cc2ccccc2o1)C(=O)N[C@@H]1CCCN(S(=O)(=O)c2ccc(F)cc2)CC1=O (stereo partly shown)", "TARGET DESC": "Schisto B 1 (Schistosoma mansoni, UniProt P25792)", "READOUT TYPE": "Ki", "OBSERVED VALUE": 31}
{"MOLECULE": "O=C(NC(Cc1ccc2ccccc2c1)C(=O)NC1CCCN(S(=O)(=O)c2ccccn2)CC1=O)c1cccc2cccnc12 (stereo not shown)", "TARGET DESC": "Schisto B 1 (Schistosoma mansoni, UniProt P25792)", "READOUT TYPE": "Ki", "OBSERVED VALUE": 8.4}
{"MOLECULE": "COc1ccc(C(=O)N[C@@H](CC(C)C)C(=O)N[C@@H]2CCCN(S(=O)(=O)c3ccc(F)cc3)CC2=O)cc1OC", "TARGET DESC": "Schisto B 1 (Schistosoma mansoni, UniProt P25792)", "READOUT TYPE": "Ki", "OBSERVED VALUE": 38}
{"MOLECULE": "COc1cc2cc(C(=O)N[C@H](CC3CCCCC3)C(=O)NC3CCCN(S(=O)(=O)c4cccc[n+]4[O-])CC3=O)oc2cc1OC (stereo partly shown)", "TARGET DESC": "Schisto B 1 (Schistosoma mansoni, UniProt P25792)", "READOUT TYPE": "Ki", "OBSERVED VALUE": 49}
{"MOLECULE": "CC(C)C[C@H](NC(=O)c1cc2ccccc2n1C)C(=O)N[C@H]1CCCN(S(=O)(=O)c2ccc(F)cc2)CC1=O", "TARGET DESC": "Schisto B 1 (Schistosoma mansoni, UniProt P25792)", "READOUT TYPE": "Ki", "OBSERVED VALUE": 160}
{"MOLECULE": "CC(C)C[C@H](NC(=O)c1cc2ccccc2s1)C(=O)N[C@H]1CCCN(S(=O)(=O)c2ccc(Cl)cc2)CC1=O", "TARGET DESC": "Schisto B 1 (Schistosoma mansoni, UniProt P25792)", "READOUT TYPE": "Ki", "OBSERVED VALUE": 75}
{"MOLECULE": "CC(C)C[C@H](NC(=O)c1cc2sccc2s1)C(=O)N[C@H]1C[C@H](C)CN(S(=O)(=O)c2ccccn2)CC1=O", "TARGET DESC": "Schisto B 1 (Schistosoma mansoni, UniProt P25792)", "READOUT TYPE": "Ki", "OBSERVED VALUE": 63}
{"MOLECULE": "COc1cccc(S(=O)(=O)N2CCC[C@H](NC(=O)[C@H](CC(C)C)NC(=O)c3cc4ccccc4o3)C(=O)C2)c1", "TARGET DESC": "Schisto B 1 (Schistosoma mansoni, UniProt P25792)", "READOUT TYPE": "Ki", "OBSERVED VALUE": 41}
{"MOLECULE": "CC(C)CC(NC(=O)c1cc2ccccc2o1)C(=O)NC1CC[C@@H](C)N(S(=O)(=O)c2ccccn2)CC1=O (single isomer, unassigned)", "TARGET DESC": "Schisto B 1 (Schistosoma mansoni, UniProt P25792)", "READOUT TYPE": "Ki", "OBSERVED VALUE": 61}
{"MOLECULE": "COc1cccc(S(=O)(=O)N2CCC[C@H](NC(=O)[C@H](CC(C)C)NC(=O)c3oc4ccccc4c3C)C(=O)C2)c1", "TARGET DESC": "Schisto B 1 (Schistosoma mansoni, UniProt P25792)", "READOUT TYPE": "Ki", "OBSERVED VALUE": 64}
{"MOLECULE": "CC(C)CC(NC(=O)c1cc2ccccc2s1)C(=O)NC1CCCN(S(=O)(=O)c2ccccn2)CC1=O (stereo in doubt)", "TARGET DESC": "Schisto B 1 (Schistosoma mansoni, UniProt P25792)", "READOUT TYPE": "Ki", "OBSERVED VALUE": 44}

###

target: Rhodazain (Trypanosoma brucei rhodesiense); test: Cysteine protease inhibition, progress curve method, rhodazain; assay type: biochemical, Trypanosoma brucei rhodesiensi; details: Rhodazain Ki (nM), 10 uM Cbz-Leu-Arg-AMC, 100 mM Na acetate pH 5.5, 5 mM cysteine
Sequence (Q95PM0 entry or part of it): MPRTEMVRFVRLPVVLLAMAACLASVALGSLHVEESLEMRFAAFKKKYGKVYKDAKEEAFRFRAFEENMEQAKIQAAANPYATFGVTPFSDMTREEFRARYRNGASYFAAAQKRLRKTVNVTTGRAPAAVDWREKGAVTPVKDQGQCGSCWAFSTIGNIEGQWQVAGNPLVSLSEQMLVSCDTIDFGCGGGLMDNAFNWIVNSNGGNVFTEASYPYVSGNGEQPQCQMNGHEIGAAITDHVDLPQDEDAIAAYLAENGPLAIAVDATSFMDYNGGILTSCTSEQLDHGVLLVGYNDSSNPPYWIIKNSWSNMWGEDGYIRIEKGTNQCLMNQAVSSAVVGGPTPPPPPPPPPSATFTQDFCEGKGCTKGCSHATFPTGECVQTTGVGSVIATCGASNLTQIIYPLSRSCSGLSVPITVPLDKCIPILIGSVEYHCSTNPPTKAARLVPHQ
READOUT TYPE: Ki (nM)

{"COMPOUND": "CC(C)C[C@@H](NC(=O)c1ccc2ccccc2n1)C(=O)N[C@@H]1CCCN(S(=O)(=O)c2ccccn2)CC1=O (single isomer, unassigned)", "UNIT ABBREV": "nM", "OBSERVED VALUE": 6.1}
{"COMPOUND": "CC(C)C[C@@H](NC(=O)c1cnc2ccccc2n1)C(=O)N[C@@H]1CCCN(S(=O)(=O)c2cccc[n+]2[O-])CC1=O", "UNIT ABBREV": "nM", "OBSERVED VALUE": 11}
{"COMPOUND": "Cc1c(C(=O)N[C@@H](CC(C)C)C(=O)NC2CCCN(S(=O)(=O)c3ccccn3)CC2=O)oc2ccccc12 (stereo partly drawn)", "UNIT ABBREV": "nM", "OBSERVED VALUE": 5.5}
{"COMPOUND": "O=C(N[C@H](Cc1ccccc1)C(=O)N[C@@H]1CCCN(S(=O)(=O)c2ccccn2)CC1=O)c1ccc2ccccc2n1 (stereo in doubt)", "UNIT ABBREV": "nM", "OBSERVED VALUE": 9.3}
{"COMPOUND": "CC(C)C[C@H](NC(=O)c1ccc(-c2cccc(C(F)(F)F)c2)o1)C(=O)N[C@@H]1CCCN(S(=O)(=O)c2ccccn2)CC1=O", "UNIT ABBREV": "nM", "OBSERVED VALUE": 5.1}
{"COMPOUND": "CC(C)C[C@H](NC(=O)c1cnc2ccccc2n1)C(=O)N[C@H]1CCCN(S(=O)(=O)c2nccs2)CC1=O", "UNIT ABBREV": "nM", "OBSERVED VALUE": 5.6}
